Assay: Circular dichroism spectroscopy analysis (CD spectra, variable temperature measurement, refolding)
Assay type: physicochemical
Settings: Table 3, mutation study 1; MGSSHHHHHHGSS-[Y#####]
ENDPOINT_NAME: Tm (°C)
Numbers only, in °C.

>  <SUBSTANCE>
Y00271: insulin binding Y variant, Y00032 with E26Q, SEQ ID NO:118 (LAEAKEAAIAELDSKGVGAYQKSFIQLAKSVEHVELLKEAILADLP; Engineered insulin binding Y variant)

>  <Tm [°C]>
49

$$$$

Need Tm for each of these substances.
1. Y00269: insulin binding Y variant, Y00032 with S23K, SEQ ID NO:116 (LAEAKEAAIAELDSKGVGAYQKKFIELAKSVEHVELLKEAILADLP; Engineered insulin binding Y variant)
2. Y00270: insulin binding Y variant, Y00032 with K22I + S23K, SEQ ID NO:117 (LAEAKEAAIAELDSKGVGAYQIKFIELAKSVEHVELLKEAILADLP; Engineered insulin binding Y variant)
3. Y00263: insulin binding Y variant, Y00032 with D13K, SEQ ID NO:110 (LAEAKEAAIAELKSKGVGAYQKSFIELAKSVEHVELLKEAILADLP; Engineered insulin binding Y variant)

1: 50; 2: 52; 3: 43

====

Please respond with reported Tm for every item in the list.
Test: Circular dichroism spectroscopy analysis (CD spectra, variable temperature measurement, refolding)
Type: physicochemical
Conditions: Table 7; MGSSHHHHHHGSS-[Y#####]-A
One number for each entry, in °C.

Please review the following examples before continuing.
>  <SUBSTANCE>
Y02310: C4 binding Y variant from Ylib002Naive.I, SEQ ID NO:36 (LAEAKEAAIAELDSKGVGADLIKKIQYADTVEGVQFWKQEILAWLPA; Engineered C4 binding Y variant)

>  <OUTPUT_UNIT>
°C

>  <Tm>
56

$$$$
>  <SUBSTANCE>
Y00304: insulin binding Y variant from Ylib002Naive.I, SEQ ID NO:134 (LAEAKEAAIAELDSKGVGAYQIKFIQVAHDVEEVQILKQAILADLPA; Engineered insulin binding Y variant)

>  <OUTPUT_UNIT>
°C

>  <Tm>
41

$$$$
>  <SUBSTANCE>
Y00310: insulin binding Y variant from Ylib002Naive.I, SEQ ID NO:135 (LAEAKEAAIAELDSKGVGAYQIKFIQIAHTVEEVQLMKQAILADLPA; Engineered insulin binding Y variant)

>  <OUTPUT_UNIT>
°C

>  <Tm>
54

$$$$

// switching to the query substance
Report Tm for Y00361: insulin binding Y variant from Ylib002Naive.I, SEQ ID NO:144 (LAEAKEAAIAELDSKGVGAKFIKMIQSAKLVETVQLLKQAILADLPA; Engineered insulin binding Y variant) please.
52

====

Experiment: Circular dichroism spectroscopy analysis (CD spectra, variable temperature measurement, refolding)
Assay type: physicochemical
Conditions: Table 3, mutation study 1; MGSSHHHHHHGSS-[Y#####]
Please respond with reported Tm for every item in the list.
One number for each entry, in °C.

Please review the following examples before continuing.
>  <SUBSTANCE>
Y00262: C4 binding Y variant, Y00001 with S23K, SEQ ID NO:18 (LAEAKEAAIAELDSKGINEAIIKKIERAESVEEVEYWKEEILAQLP; Engineered C4 binding Y variant)

>  <Tm / °C>
61

$$$$
>  <SUBSTANCE>
Y00267: insulin binding Y variant, Y00032 with A19E, SEQ ID NO:114 (LAEAKEAAIAELDSKGVGEYQKSFIELAKSVEHVELLKEAILADLP; Engineered insulin binding Y variant)

>  <Tm / °C>
48

$$$$
>  <SUBSTANCE>
Y00272: insulin binding Y variant, Y00032 with A28G, SEQ ID NO:119 (LAEAKEAAIAELDSKGVGAYQKSFIELGKSVEHVELLKEAILADLP; Engineered insulin binding Y variant)

>  <Tm / °C>
34

$$$$
>  <SUBSTANCE>
Y00276: insulin binding Y variant, Y00032 with A43K, SEQ ID NO:123 (LAEAKEAAIAELDSKGVGAYQKSFIELAKSVEHVELLKEAILKDLP; Engineered insulin binding Y variant)

>  <Tm / °C>
50

$$$$

Need Tm for each of these substances.
1. Y00274: insulin binding Y variant, Y00032 with E35Q, SEQ ID NO:121 (LAEAKEAAIAELDSKGVGAYQKSFIELAKSVEHVQLLKEAILADLP; Engineered insulin binding Y variant)
2. Y00032: insulin binding Y variant from Ylib001Naive.I, SEQ ID NO:90 (LAEAKEAAIAELDSKGVGAYQKSFIELAKSVEHVELLKEAILADLP; Engineered insulin binding Y variant)
3. Y00264: insulin binding Y variant, Y00032 with K15Y, SEQ ID NO:111 (LAEAKEAAIAELDSYGVGAYQKSFIELAKSVEHVELLKEAILADLP; Engineered insulin binding Y variant)
4. Y00275: insulin binding Y variant, Y00032 with E39Q, SEQ ID NO:122 (LAEAKEAAIAELDSKGVGAYQKSFIELAKSVEHVELLKQAILADLP; Engineered insulin binding Y variant)
5. Y00268: insulin binding Y variant, Y00032 with K22I, SEQ ID NO:115 (LAEAKEAAIAELDSKGVGAYQISFIELAKSVEHVELLKEAILADLP; Engineered insulin binding Y variant)

[53, 49, 48, 54, 49]
